Where do these numbers come from? They come from patent US7470716B2.

Would you mind telling me the reported IC50 of each entry?
Target: DPP-IV (Homo sapiens)
Construct: an extract of the human colon carcinoma cell line Caco-2 is used as the DPP IV source; endogenous in cells; Nonidet-P40 solubilised extract
Sequence (P27487 whole entry): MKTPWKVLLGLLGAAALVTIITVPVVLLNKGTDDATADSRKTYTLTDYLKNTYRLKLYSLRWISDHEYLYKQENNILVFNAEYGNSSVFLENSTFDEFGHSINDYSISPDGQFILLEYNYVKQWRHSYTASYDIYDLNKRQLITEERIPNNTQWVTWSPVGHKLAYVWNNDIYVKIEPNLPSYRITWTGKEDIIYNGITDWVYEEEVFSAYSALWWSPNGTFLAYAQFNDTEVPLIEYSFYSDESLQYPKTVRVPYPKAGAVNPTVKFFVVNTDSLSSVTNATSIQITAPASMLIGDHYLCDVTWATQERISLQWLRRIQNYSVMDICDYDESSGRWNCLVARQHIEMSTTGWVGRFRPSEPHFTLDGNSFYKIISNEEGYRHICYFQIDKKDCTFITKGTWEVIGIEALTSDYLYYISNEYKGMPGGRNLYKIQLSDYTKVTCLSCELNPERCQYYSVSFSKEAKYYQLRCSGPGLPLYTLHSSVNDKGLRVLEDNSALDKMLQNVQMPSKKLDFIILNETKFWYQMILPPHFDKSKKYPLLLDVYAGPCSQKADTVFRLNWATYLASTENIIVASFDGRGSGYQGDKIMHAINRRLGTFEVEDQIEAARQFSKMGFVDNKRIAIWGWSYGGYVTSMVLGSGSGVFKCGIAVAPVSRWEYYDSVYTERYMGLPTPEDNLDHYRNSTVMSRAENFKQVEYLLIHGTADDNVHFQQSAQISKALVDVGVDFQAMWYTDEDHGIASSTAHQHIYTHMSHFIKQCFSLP
Test: DPP-IV assay with Caco-2 cell extract as DPP IV source, AFC substrate, fluorescence
Conditions: extract of human colon carcinoma cell line Caco-2; substrate 100 μM; 60 minutes at ambient temperature; read-out: DPP IV inhibition IC50
Output should be the measured figure followed by the unit it is expressed in.

Input: Give the reported value of IC50 for this record: CC#CCn1c(C(=O)NCc2ccc3ncccc3c2)nnc1N1CCCC(N)C1 (stereo not shown)
Output: 36 nM

Input: Give the reported value of IC50 for this record: NC1CCCN(c2nnc(C(=O)NCc3cccc4ccccc34)n2Cc2ccccc2Cl)C1 (stereo not shown)
Output: 382 nM

Input: Give the reported value of IC50 for this record: `CC(C)=CCn1c(C(=O)NCc2cccc3ccccc23)nnc1N1CCCNCC1`
Output: 386 nM

Input: Give the reported value of IC50 for this record: NC1CCCN(c2nnc(C(=O)NCc3cccc4ccccc34)n2Cc2ccccc2)C1 (stereo not shown)
Output: 101 nM

Input: Give the reported value of IC50 for this record: `CC(C)=CCn1c(C(=O)NCc2cccc3ccccc23)nnc1N1CCNCC1`
Output: 367 nM

Input: Give the reported value of IC50 for this record: CC(C)=CCn1c(C(=O)NCc2cccc3ccccc23)nnc1N1CCCC(N)C1 (stereo not shown)
Output: 101 nM

Input: Give the reported value of IC50 for this record: CC#CCn1c(C(=O)NCc2nc3ccccc3c3ccccc23)cnc1N1CCCC(N)C1 (stereo not shown)
Output: 41 nM
